target: KRAS G12C (Homo sapiens, UniProt P01116, G12C); construct: made in house; test: Rate constant of covalent reaction of competition probes with KRAS mutant (mass spectrometry); assay type: binding
recorded.endpoint: Rate Constant for Reaction with Indicated Protein, KRAS G12C (M⁻¹ s⁻¹)

C=CC(=O)N1CCN(c2ncnc3c(F)c(-c4c(O)cccc4F)c(Cl)cc23)CC1 = 310

I. C=CC(=O)N1CCN(c2ccc(-c3cc(O)ccc3Cl)cc2C#N)CC1
II. C=CC(=O)N1CCN(c2ncnc3cc(Cl)c(-c4ccccc4Cl)cc23)CC1
III. C=CC(=O)N1CC(N2CCN(C(=O)CNc3cc(C4(C)CC4)c(Cl)cc3O)CC2)C1
IV. C=CC(=O)N1CCN(C(=O)c2cc(-c3cc(Cl)ccc3Cl)c(Cl)cc2O)CC1
Returns the items ordered by Rate Constant for Reaction with Indicated Protein, KRAS G12C, from maximum to minimum. Return the labels ranked in the requested order, please.
III, I, IV, II
(III: 76 M⁻¹ s⁻¹, I: 5.8 M⁻¹ s⁻¹, IV: 2.3 M⁻¹ s⁻¹, II: 1.1 M⁻¹ s⁻¹)
